The measured values listed here are drawn from patent US20220177604A1.

Molecular target: T1, human immunoglobulin E (hIgE) (human, UniProt P01854-1 1-428)
T1 construct: also called human IgE; Native IgE (Abcam)
T1 sequence (P01854 whole entry): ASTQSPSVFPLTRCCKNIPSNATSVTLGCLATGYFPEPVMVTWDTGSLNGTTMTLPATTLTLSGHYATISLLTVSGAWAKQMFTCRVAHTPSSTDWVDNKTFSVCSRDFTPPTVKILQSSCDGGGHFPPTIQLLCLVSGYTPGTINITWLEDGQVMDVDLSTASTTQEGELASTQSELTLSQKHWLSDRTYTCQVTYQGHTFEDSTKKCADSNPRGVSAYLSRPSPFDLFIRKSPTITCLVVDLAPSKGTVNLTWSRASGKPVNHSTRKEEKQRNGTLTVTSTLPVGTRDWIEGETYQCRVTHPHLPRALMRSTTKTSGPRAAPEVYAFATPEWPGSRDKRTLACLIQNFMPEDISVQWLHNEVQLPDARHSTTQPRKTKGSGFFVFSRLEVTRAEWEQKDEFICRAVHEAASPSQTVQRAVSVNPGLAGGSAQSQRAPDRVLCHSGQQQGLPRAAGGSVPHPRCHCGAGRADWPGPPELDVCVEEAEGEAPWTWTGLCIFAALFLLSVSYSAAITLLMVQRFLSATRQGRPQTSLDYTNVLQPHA
Test: competition ELISA, biotin-hIgE to coated hFcεRIα, pH 7.4
Assign IC50 to each entry below.
Kindly format the answer as number then unit.

The examples below pair each entry with its known result.
18B9 human IgG1 mAb (antibody, V domains shown, human IgG1 and human light chain constant domains; also called clone 18B9) VH: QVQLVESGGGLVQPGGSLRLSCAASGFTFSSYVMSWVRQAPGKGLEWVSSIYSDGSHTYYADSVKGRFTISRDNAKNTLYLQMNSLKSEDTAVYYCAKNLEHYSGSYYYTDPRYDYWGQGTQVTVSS VL: SSALTQPSALSVTLGQTAKITCQGGSLGSSYVHWYQQKPGQAPVLVIYDGDSRPSGIPERFSGSSSGGTATLTISGAQAEDEDDYYCQSADSSGNAVFGGGTHLTVL : 41.9 nM
3D6 human IgG1 mAb (antibody, V domains shown, human IgG1 and human light chain constant domains; also called clone 3D6) VH: QVQLVESGGGLVQPGGSLRLSCAASGFTFSSYYMTWVRQAPGKGLEWVSSIYSDGSNTYYADSVKGRFTISRDNAKNTLHLQMNSLKSEDTAVYYCAKDLKARYSGSYHDEGYDYWGQGTQVTVSS VL: QSALTQPSALSVTLGQTAKITCQGGSLGSSYAHWYQQKPGQAPVLVIYDDDSRPSGIPERFSGSSSGGRATLTISGAQAEDEGDYYCQSADSSGNPVFGGGTKLTVL : 75.4 nM
20D5 human IgG1 mAb (antibody, V domains shown, also called clone 20D5) VH: QLQLVESGGGLVQPGGSLRLSCAASGFAFSSYVMTWVRQAPGKGLEWVSSIYSDGSHTYYADSVKDRFTISRDNAKNTLFLQMNSLKSEDTAVYYCAKDAEYYSGSYYYTDTKYDYWGQGTQVTVSS VL: SSALTQPSALSVTLGQTAKITCQGGSLGSSYAHWYQQKPGQAPVLVIYADDSRPSGIPERFSGSSSGGTATLTISGAQAEDEGDYYCQSADSSGNAVFGGGTHLTVL : 35.2 nM

Using known records, supply IC50 for 3D1 human IgG1 mAb (antibody, V domains shown, human IgG1 and human light chain constant domains; also called clone 3D1; WT 3D1) VH: QLQVVESGGGLVQPGGSLRLSCAASGFTFSSYYMSWVRQAPGKGLEWVSSIYSDGRGSKTFYADSVKGRFTISRDNAKNTLYLQMNSLKSEDTAVYFCAKDLLVAARGSMDYWGQGTQVTVSS VL: NFMLTQPSAVSVSLEQTARITCQGGTLGSYGAHWYQQKPGQAPVLLIYGDNSRPSGIPERFSGTRSGGTATLTISGAQAEDEADYYCQSFDYSGNAVFGGGTHLTVL
90.3 nM
